Attribution: the supplement of paper PMC6757056

B1: library; a variant is named by its letters at N, in order (parent)
chain: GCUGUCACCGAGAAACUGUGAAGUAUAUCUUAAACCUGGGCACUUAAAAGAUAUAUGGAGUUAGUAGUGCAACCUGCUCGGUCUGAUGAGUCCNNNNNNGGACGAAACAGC

- Variants of: B1
- procedure-details: normalized RNA/DNA level with ligand (relative to sTRSVctl = 100) (log10 (% of sTRSVctl)); HEK293T; ligand: cyclic di-GMP (c-di-GMP-II aptamer); ligand concentration (+) RNA-Seq: 1 mM; higher = less ribozyme self-cleavage, higher mRNA level
- experimental-context: reporter: mCherry (pCS4076), ligand present: yes
Kindly supply the reported normalized RNA/DNA level with ligand (log10) values for the records listed here.
Please give the numeric answer without any surrounding text.

q: Respond only with normalized RNA/DNA level with ligand (log10) recorded for GGCUUC
a: 1.82

q: Respond only with normalized RNA/DNA level with ligand (log10) recorded for UACGUA
a: 1.8

q: Respond only with normalized RNA/DNA level with ligand (log10) recorded for ACCGCC
a: 1.89

q: Respond only with normalized RNA/DNA level with ligand (log10) recorded for CCUUGG
a: 1.9

q: Respond only with normalized RNA/DNA level with ligand (log10) recorded for CGCCCG
a: 1.87

q: Respond only with normalized RNA/DNA level with ligand (log10) recorded for CGAUUC
a: 1.81

q: Respond only with normalized RNA/DNA level with ligand (log10) recorded for CUCGUG
a: 1.82

q: Respond only with normalized RNA/DNA level with ligand (log10) recorded for AUUUUA
a: 1.8

q: Respond only with normalized RNA/DNA level with ligand (log10) recorded for AGUUCG
a: 1.79

q: Respond only with normalized RNA/DNA level with ligand (log10) recorded for GUCCGU
a: 1.82

q: Respond only with normalized RNA/DNA level with ligand (log10) recorded for ACCAGA
a: 1.6

q: Respond only with normalized RNA/DNA level with ligand (log10) recorded for AUAGUA
a: 1.65

q: Respond only with normalized RNA/DNA level with ligand (log10) recorded for UGAACU
a: 1.86

q: Respond only with normalized RNA/DNA level with ligand (log10) recorded for CGCCCA
a: 1.91

q: Respond only with normalized RNA/DNA level with ligand (log10) recorded for GCAUUA
a: 1.71

q: Respond only with normalized RNA/DNA level with ligand (log10) recorded for GGUUAC
a: 1.87

q: Respond only with normalized RNA/DNA level with ligand (log10) recorded for GGGUAG
a: 1.89

q: Respond only with normalized RNA/DNA level with ligand (log10) recorded for UCAAAG
a: 1.77

q: Respond only with normalized RNA/DNA level with ligand (log10) recorded for UUAAUU
a: 1.88

q: Respond only with normalized RNA/DNA level with ligand (log10) recorded for GUAGCU
a: 1.83

q: Respond only with normalized RNA/DNA level with ligand (log10) recorded for CAGAAA
a: 1.28

q: Respond only with normalized RNA/DNA level with ligand (log10) recorded for UACAAU
a: 1.77
